Target: NAD(P)H dehydrogenase [quinone] 1 (Mus musculus)
Test: Induction of NQO1 activity in mouse Hepa-1c1c7 cells assessed as induction ratio at 0.1 uM after 48 hrs by MTT assay relative to control
Type: cell-based
// reported Ratio for each item listed
OUTCOME_MEASURE: Ratio

[
  {
    "STRUCTURE": "O=C1Nc2ccccc2/C1=C\\c1cccc(C(F)(F)F)c1",
    "OUTCOME_MEASURE": "Ratio",
    "EXPERIMENTAL_VALUE": 3.85
  },
  {
    "STRUCTURE": "O=C1Nc2ccccc2/C1=C1\\C(=O)Nc2ccccc21",
    "OUTCOME_MEASURE": "Ratio",
    "EXPERIMENTAL_VALUE": 2.8
  },
  {
    "STRUCTURE": "O=C1Nc2ccccc2/C1=C\\c1ccc(C(F)(F)F)cc1",
    "OUTCOME_MEASURE": "Ratio",
    "EXPERIMENTAL_VALUE": 2.74
  },
  {
    "STRUCTURE": "COc1cccc(/C=C2/C(=O)Nc3cc(Cl)ccc32)c1",
    "OUTCOME_MEASURE": "Ratio",
    "EXPERIMENTAL_VALUE": 2.56
  }
]

* * *

Test system: HCT-116
Assay: Cell cycle arrest in human HCT116 cells released from G1 block assessed as accumulation at sub G1 phase at 15 uM after 24 hrs by flow cytometry
Assay type: functional
OUTCOME_MEASURE: Activity (%)

[
  {
    "STRUCTURE": "O=C1Nc2cc(F)ccc2/C1=C\\c1cccc(C(F)(F)F)c1",
    "OUTCOME_MEASURE": "Activity",
    "EXPERIMENTAL_VALUE": 12.68
  },
  {
    "STRUCTURE": "O=C1Nc2cc(Cl)ccc2/C1=C\\c1cccc(C(F)(F)F)c1",
    "OUTCOME_MEASURE": "Activity",
    "EXPERIMENTAL_VALUE": 12.39
  },
  {
    "STRUCTURE": "COc1ccc2c(c1)NC(=O)/C2=C/c1ccc(OC)c(O)c1",
    "OUTCOME_MEASURE": "Activity",
    "EXPERIMENTAL_VALUE": 5.26
  },
  {
    "STRUCTURE": "COc1cc(/C=C2/C(=O)Nc3ccccc32)cc(OC)c1OC",
    "OUTCOME_MEASURE": "Activity",
    "EXPERIMENTAL_VALUE": 3.78
  },
  {
    "STRUCTURE": "O=C1Nc2ccccc2/C1=C\\c1cccc(Oc2ccccc2)c1",
    "OUTCOME_MEASURE": "Activity",
    "EXPERIMENTAL_VALUE": 3.62
  }
]

* * *

Target: UniProtKB P00184
Sequence (P00184 whole entry): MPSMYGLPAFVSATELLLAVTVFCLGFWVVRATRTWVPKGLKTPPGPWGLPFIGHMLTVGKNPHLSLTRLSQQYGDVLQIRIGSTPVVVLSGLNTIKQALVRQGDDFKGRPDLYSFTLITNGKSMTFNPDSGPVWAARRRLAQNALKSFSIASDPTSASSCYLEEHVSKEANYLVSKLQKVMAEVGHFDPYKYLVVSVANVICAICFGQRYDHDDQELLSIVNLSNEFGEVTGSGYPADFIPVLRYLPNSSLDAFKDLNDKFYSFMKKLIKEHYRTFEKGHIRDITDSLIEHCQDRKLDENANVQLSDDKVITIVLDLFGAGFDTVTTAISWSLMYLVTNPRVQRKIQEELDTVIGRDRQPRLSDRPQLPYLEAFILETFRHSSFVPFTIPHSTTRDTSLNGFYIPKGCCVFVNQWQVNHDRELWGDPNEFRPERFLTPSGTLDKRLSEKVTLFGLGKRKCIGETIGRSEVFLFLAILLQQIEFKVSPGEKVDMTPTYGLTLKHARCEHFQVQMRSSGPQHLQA
Assay: Induction of CYP1A1 activity in mouse Hepa-1c1c7 cells assessed as induction ratio at 1 uM after 48 hrs by EROD assay relative to control
Assay type: ADME, cell-based

[
  {
    "COMPOUND": "COc1ccccc1/C=C1/C(=O)Nc2ccccc21",
    "fold induction at 48 h, 1 µM": 2.48
  },
  {
    "COMPOUND": "C[S+]([O-])CCCCN=C=S (stereo not drawn)",
    "fold induction at 48 h, 1 µM": 0.92
  },
  {
    "COMPOUND": "O=C1Nc2ccccc2/C1=C\\c1c[nH]c2ccccc12",
    "fold induction at 48 h, 1 µM": 1.28
  },
  {
    "COMPOUND": "COc1cccc(/C=C2/C(=O)Nc3ccccc32)c1",
    "fold induction at 48 h, 1 µM": 1.26
  },
  {
    "COMPOUND": "COc1ccc(/C=C2/C(=O)Nc3cc(Cl)ccc32)cc1O",
    "fold induction at 48 h, 1 µM": 2.33
  },
  {
    "COMPOUND": "COc1ccc2c(c1)NC(=O)/C2=C/c1ccc(OC)c(O)c1",
    "fold induction at 48 h, 1 µM": 1.05
  },
  {
    "COMPOUND": "COc1cccc(/C=C2/C(=O)Nc3cc(F)ccc32)c1",
    "fold induction at 48 h, 1 µM": 1.25
  },
  {
    "COMPOUND": "Cc1cccc(/C=C2/C(=O)Nc3ccccc32)c1",
    "fold induction at 48 h, 1 µM": 1.08
  }
]

* * *

Assay: Cytotoxicity against mouse Hepa-1c1c7 cells after 48 hrs by MTT assay
Format: cell-based
Settings: hepa-1c1c7, 48 h

[
  {
    "STRUCTURE": "O=C1Nc2ccccc2/C1=C\\c1ccncc1",
    "IC50": "> 25 µM"
  },
  {
    "STRUCTURE": "COc1ccc(/C=C2/C(=O)Nc3ccccc32)cc1O",
    "IC50": "11.9 µM"
  },
  {
    "STRUCTURE": "Cc1ccccc1/C=C1/C(=O)Nc2ccccc21",
    "IC50": "> 25 µM"
  },
  {
    "STRUCTURE": "COc1ccc(OC)c(/C=C2/C(=O)Nc3ccccc32)c1",
    "IC50": "> 25 µM"
  },
  {
    "STRUCTURE": "COc1ccc(/C=C2/C(=O)Nc3ccccc32)cc1",
    "IC50": "> 25 µM"
  }
]

* * *

// reported fold induction at 48 h, 5 µM for each item listed
Target: CYP1A1 (Mus musculus)
Sequence (P00184 whole entry): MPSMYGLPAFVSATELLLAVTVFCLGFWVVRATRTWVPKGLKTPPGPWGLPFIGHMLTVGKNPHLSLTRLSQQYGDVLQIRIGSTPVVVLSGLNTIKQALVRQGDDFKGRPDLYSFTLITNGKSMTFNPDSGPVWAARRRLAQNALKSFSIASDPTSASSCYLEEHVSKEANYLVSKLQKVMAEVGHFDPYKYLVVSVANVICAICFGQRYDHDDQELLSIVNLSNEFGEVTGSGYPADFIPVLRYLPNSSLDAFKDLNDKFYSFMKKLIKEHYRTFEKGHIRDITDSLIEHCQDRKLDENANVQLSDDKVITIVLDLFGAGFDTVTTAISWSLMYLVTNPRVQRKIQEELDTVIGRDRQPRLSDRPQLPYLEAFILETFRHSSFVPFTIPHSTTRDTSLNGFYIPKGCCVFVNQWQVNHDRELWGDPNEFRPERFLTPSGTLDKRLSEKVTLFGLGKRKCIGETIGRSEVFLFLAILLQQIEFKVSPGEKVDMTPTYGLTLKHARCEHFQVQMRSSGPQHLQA
Experiment: Induction of CYP1A1 activity in mouse Hepa-1c1c7 cells assessed as induction ratio at 5 uM after 48 hrs by EROD assay relative to control
Format: ADME, cell-based

[
  {
    "STRUCTURE": "COc1ccc(/C=C2/C(=O)N(C)c3ccccc32)cc1O",
    "fold induction at 48 h, 5 µM": 1.08
  },
  {
    "STRUCTURE": "COc1cc(/C=C2/C(=O)Nc3ccccc32)ccc1O",
    "fold induction at 48 h, 5 µM": 1.32
  },
  {
    "STRUCTURE": "COc1ccc(/C=C2/C(=O)Nc3ccccc32)cc1",
    "fold induction at 48 h, 5 µM": 1.04
  },
  {
    "STRUCTURE": "O=C1Nc2ccccc2/C1=C\\c1cccc(O)c1",
    "fold induction at 48 h, 5 µM": 1.11
  },
  {
    "STRUCTURE": "O=C1Nc2ccccc2/C1=C\\c1ccccc1F",
    "fold induction at 48 h, 5 µM": 1.26
  },
  {
    "STRUCTURE": "O=C1Nc2ccccc2/C1=C\\c1ccccc1",
    "fold induction at 48 h, 5 µM": 1.01
  },
  {
    "STRUCTURE": "Cc1ccccc1/C=C1/C(=O)Nc2ccccc21",
    "fold induction at 48 h, 5 µM": 1.66
  },
  {
    "STRUCTURE": "COc1cccc(/C=C2\\Nc3ccccc3C2=O)c1",
    "fold induction at 48 h, 5 µM": 1.13
  },
  {
    "STRUCTURE": "COc1cccc(/C=C2/C(=O)N(C)c3ccccc32)c1",
    "fold induction at 48 h, 5 µM": 1.18
  }
]
